Reported log10 of EC50 values for a set of compounds
Molecular target: sGC α1/β1 heterodimer stably expressed in CHO-K1 cell line (CHO-K1/sGC) (Homo sapiens, UniProt Q02108+Q02153)
Construct: expressed in transfected cells
Sequence (Q02108 1-690): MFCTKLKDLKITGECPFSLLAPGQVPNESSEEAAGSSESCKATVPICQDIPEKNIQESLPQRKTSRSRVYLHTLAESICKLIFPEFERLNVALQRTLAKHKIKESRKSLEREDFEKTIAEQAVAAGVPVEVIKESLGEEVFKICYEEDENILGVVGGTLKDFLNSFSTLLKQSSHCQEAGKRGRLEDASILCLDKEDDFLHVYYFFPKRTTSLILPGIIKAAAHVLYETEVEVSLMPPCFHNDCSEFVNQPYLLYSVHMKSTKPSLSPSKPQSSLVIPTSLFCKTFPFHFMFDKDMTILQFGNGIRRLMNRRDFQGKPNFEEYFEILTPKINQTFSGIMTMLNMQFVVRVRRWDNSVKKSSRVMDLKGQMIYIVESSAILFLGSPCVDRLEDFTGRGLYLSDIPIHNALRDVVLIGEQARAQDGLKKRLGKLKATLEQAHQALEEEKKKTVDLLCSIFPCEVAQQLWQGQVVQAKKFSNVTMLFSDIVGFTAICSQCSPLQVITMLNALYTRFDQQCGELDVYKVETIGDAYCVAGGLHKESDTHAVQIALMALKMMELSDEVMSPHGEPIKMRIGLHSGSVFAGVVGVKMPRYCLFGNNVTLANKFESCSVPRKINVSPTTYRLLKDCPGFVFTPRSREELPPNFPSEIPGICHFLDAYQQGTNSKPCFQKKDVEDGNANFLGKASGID
Sequence (Q02153 1-619): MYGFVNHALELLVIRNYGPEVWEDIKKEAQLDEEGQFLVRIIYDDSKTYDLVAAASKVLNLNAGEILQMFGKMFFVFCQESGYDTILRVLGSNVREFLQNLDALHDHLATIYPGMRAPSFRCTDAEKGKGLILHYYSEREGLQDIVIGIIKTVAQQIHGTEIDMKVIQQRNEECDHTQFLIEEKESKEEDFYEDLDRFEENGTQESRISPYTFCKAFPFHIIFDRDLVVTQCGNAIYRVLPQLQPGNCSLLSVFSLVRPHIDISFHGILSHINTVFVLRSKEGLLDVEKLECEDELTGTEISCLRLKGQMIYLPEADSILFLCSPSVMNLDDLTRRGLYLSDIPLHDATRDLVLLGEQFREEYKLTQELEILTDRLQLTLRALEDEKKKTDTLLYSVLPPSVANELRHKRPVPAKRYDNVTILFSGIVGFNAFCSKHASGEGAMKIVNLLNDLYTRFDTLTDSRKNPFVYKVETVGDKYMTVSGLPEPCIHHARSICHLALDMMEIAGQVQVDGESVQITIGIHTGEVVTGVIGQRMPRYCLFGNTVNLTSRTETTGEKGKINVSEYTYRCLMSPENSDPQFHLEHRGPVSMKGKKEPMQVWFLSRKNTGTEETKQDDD
Assay: Cell-based sGC Functional Assay (CASA Assay), cGMP generation
Details: CHO-K1/sGC cells, 1 hr at 37° C., cGMP by HTRF, 4P fit; presence or absence of 1 μM DETA-NO not given; read-out: IP (nM) (inflection point)
property: log10 of EC50 (log10 of the value in nM)

compound: CCCc1nc(-c2nc(N)c3c(n2)NC(=O)[C@@]3(C)c2ccc(F)cc2)cn2nc(C)nc12 [Example 91A]
log10 of EC50: 2.82

compound: CC1(c2ccc(F)c(F)c2)C(=O)Nc2nc(-c3cn4ncnc4c(CCC(F)(F)C(F)(F)F)n3)nc(O)c21 (stereo not drawn) [Example 169B]
log10 of EC50: 2.05

compound: CC1(c2ccc(F)c(F)c2)C(=O)Nc2nc(-c3cn4ncnc4c(CCC(F)(F)F)n3)nc(N)c21 (stereo not drawn) [Example 84B]
log10 of EC50: 1.75

compound: CCCCc1nc(-c2nc(N)c3c(n2)NC(=O)C3(C)c2ccc(C(F)(F)F)cn2)cn2ncnc12 (stereo not drawn) [Example 67B]
log10 of EC50: 1.41

compound: CCCCc1nc(-c2nc(O)c3c(n2)NC(=O)C3(C)c2ccc(C(F)(F)F)cn2)cn2ncnc12 (stereo not drawn) [Example 159B]
log10 of EC50: 2.32

compound: CCCCc1nc(-c2nc(N)c3c(n2)NC(=O)C3(c2ccc(F)c(F)c2)C2CC2)cn2ncnc12 (stereo not drawn) [Example 65A]
log10 of EC50: 0.41
